Source of measurements: PubChem BioAssay AID1117306

conditions: Ebola virus entry assay, blue channel imaging
Active and inactive are the calls of the source. Calls follow the shape of the full dose curve.
assay.endpoint: AC50

[[record]]
compound = "CCC1=C[C@@H]2CN(C1)Cc1c([nH]c3ccccc13)[C@@](C(=O)OC)(c1cc3c(cc1OC)N(C)[C@H]1[C@@](O)(C(=O)OC)[C@H](OC(C)=O)[C@]4(CC)C=CCN5CC[C@]31[C@@H]54)C2"
assay_endpoint = "AC50"
reported = "0.153 µM (active)"

[[record]]
compound = "CO[C@H]1C[C@@H]2CC[C@@H](C)[C@@](O)(O2)C(=O)C(=O)N2CCCC[C@@H]2C(=O)O[C@H]([C@@H](C)C[C@@H]2CC[C@H](O)[C@H](OC)C2)CC(=O)[C@H](C)C=C(C)[C@@H](O)[C@@H](OC)C(=O)[C@H](C)C[C@H](C)C=CC=CC=C1C"
assay_endpoint = "AC50"
reported = "inactive"

[[record]]
compound = "CO[C@H]1C[C@@H]2CC[C@@H](C)[C@@](O)(O2)C(=O)C(=O)N2CCCC[C@@H]2C(=O)O[C@H]([C@H](C)C[C@@H]2CC[C@H](OCCO)[C@H](OC)C2)CC(=O)[C@H](C)C=C(C)[C@@H](O)[C@@H](OC)C(=O)[C@H](C)C[C@H](C)C=CC=CC=C1C"
assay_endpoint = "AC50"
reported = "inactive"

[[record]]
compound = "NCCCC(O)(P(=O)(O)O)P(=O)(O)O"
assay_endpoint = "AC50"
reported = "inactive"

[[record]]
compound = "CCN(CC)CCNC(=O)c1c(C)[nH]c(/C=C2\\C(=O)Nc3ccc(F)cc32)c1C"
assay_endpoint = "AC50"
reported = "3.06 µM (active)"

[[record]]
compound = "COc1cccc2c1C(=O)c1c(O)c3c(c(O)c1C2=O)C[C@@](O)(C(C)=O)C[C@H]3O[C@H]1C[C@H](N)[C@H](O)[C@H](C)O1"
assay_endpoint = "AC50"
reported = "3.43 µM (active)"

[[record]]
compound = "CN1CCN(CCCN2c3ccccc3Sc3ccc(C(F)(F)F)cc32)CC1"
assay_endpoint = "AC50"
reported = "9.68 µM (active)"

[[record]]
compound = "COC(=O)Nc1nc2ccc(C(=O)c3cccs3)cc2[nH]1"
assay_endpoint = "AC50"
reported = "0.611 µM (active)"


---

conditions: Ebola virus entry assay, blue channel imaging
Activity calls are given as the source filed them. The call rests on the fitted dose curve.
Outcomes: T for active, F for inactive

[[record]]
molecule = "COC1=CC(=O)C[C@@H](C)[C@]12Oc1c(Cl)c(OC)cc(OC)c1C2=O"
class_name = "F"

[[record]]
molecule = "CC[C@H]1OC(=O)[C@H](C)[C@@H](O[C@H]2C[C@@](C)(OC)[C@@H](O)[C@H](C)O2)[C@H](C)[C@@H](O[C@@H]2O[C@H](C)C[C@H](N(C)C)[C@@H]2O)[C@](C)(O)C[C@@H](C)CN(C)[C@H](C)[C@@H](O)[C@]1(C)O"
class_name = "T"

[[record]]
molecule = "CC[C@]1(O)C[C@@H]2CN(CCc3c([nH]c4ccccc34)[C@@](C(=O)OC)(c3cc4c(cc3OC)N(C)[C@H]3[C@@](O)(C(=O)OC)[C@H](OC(C)=O)[C@]5(CC)C=CCN6CC[C@]43[C@@H]65)C2)C1"
class_name = "T"

[[record]]
molecule = "Cc1nnc(C(C)C)n1C1C[C@H]2CC[C@@H](C1)N2CC[C@H](NC(=O)C1CCC(F)(F)CC1)c1ccccc1 (stereo not given in full)"
class_name = "F"

[[record]]
molecule = "C[C@@H]1O[C@@H](O[C@H]2CC[C@@]3(C)[C@H](CC[C@@H]4[C@H]3C[C@@H](O)[C@]3(C)[C@@H](C5=CC(=O)OC5)CC[C@]43O)C2)C[C@H](O)[C@@H]1O[C@H]1C[C@H](O)[C@H](O[C@H]2C[C@H](O)[C@@H](O)[C@@H](C)O2)[C@H](C)O1 (stereo in doubt)"
class_name = "F"

